compounds and their reported EC50
- TESTED TARGET: LXRβ (Homo sapiens (Human))
- Sequence (P55055 whole entry, the tested form may be a part): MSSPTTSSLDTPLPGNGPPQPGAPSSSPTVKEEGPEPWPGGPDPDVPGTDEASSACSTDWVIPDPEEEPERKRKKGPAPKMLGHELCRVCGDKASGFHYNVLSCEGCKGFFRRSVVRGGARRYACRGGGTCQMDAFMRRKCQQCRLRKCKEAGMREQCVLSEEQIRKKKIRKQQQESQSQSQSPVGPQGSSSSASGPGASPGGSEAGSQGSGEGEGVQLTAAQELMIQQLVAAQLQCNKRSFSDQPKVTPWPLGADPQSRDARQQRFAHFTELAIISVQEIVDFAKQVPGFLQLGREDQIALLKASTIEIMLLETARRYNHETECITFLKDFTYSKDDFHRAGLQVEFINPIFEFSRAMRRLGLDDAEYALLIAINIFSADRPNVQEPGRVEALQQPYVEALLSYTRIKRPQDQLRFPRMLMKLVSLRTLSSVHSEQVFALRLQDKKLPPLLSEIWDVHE
- METHOD: In vitro assay LXRβ: PathHunter NHR CHO cells, LXRβ / Steroid Receptor Co-activator Peptide enzyme fragment complementation
- Assay type: cell-based
- SETTINGS: PathHunter NHR CHO cells, full-length human LXRβ and SRCP, chemiluminescent signal; read-out: LXRβ PPI

C[C@H](CCC(=O)N1CCC(C(O)(C(F)(F)F)C(F)(F)F)CC1)[C@H]1CC[C@H]2[C@@H]3CC=C4C[C@@H](O)CC[C@]4(C)[C@H]3CC[C@]12C [Example 99]	> 10 µM
C[C@H](CCC(=O)N1CCN(C(=O)c2ccnnc2)CC1)[C@H]1CC[C@H]2[C@@H]3CC=C4C[C@@H](O)CC[C@]4(C)[C@H]3CC[C@]12C [Example 312]	> 10 µM
COc1cccnc1C1CCN(C(=O)CC[C@@H](C)[C@H]2CC[C@H]3[C@@H]4CC=C5C[C@@H](O)CC[C@]5(C)[C@H]4CC[C@]23C)CC1 [Example 622]	> 10 µM
C[C@H](CCC(=O)N1CCN(c2cccnc2)CC1)[C@H]1CC[C@H]2[C@@H]3CC=C4C[C@@H](O)CC[C@]4(C)[C@H]3CC[C@]12C [Example 306]	> 10 µM

Reported EC50 for CCN(C)C(=O)N1CCN(C(=O)CC[C@@H](C)[C@H]2CC[C@H]3[C@@H]4CC=C5C[C@@H](O)CC[C@]5(C)[C@H]4CC[C@]23C)CC1 [Example 213] was > 10 µM

Reported EC50 for [C-]#[N+]c1cccnc1CC[C@@H](C)[C@H]1CC[C@H]2[C@@H]3CC=C4C[C@@H](O)CC[C@]4(C)[C@H]3CC[C@]12C [Example 638] was 0.25 to 1 µM

Reported EC50 for C[C@H](CCC(=O)N(C)CCc1cccnc1)[C@H]1CC[C@H]2[C@@H]3CC=C4C[C@@H](O)CC[C@]4(C)[C@H]3CC[C@]12C [Example 543] was 0.25 to 1 µM

Reported EC50 for COc1ccncc1N1CCN(C(=O)CC[C@@H](C)[C@H]2CC[C@H]3[C@@H]4CC=C5C[C@@H](O)CC[C@]5(C)[C@H]4CC[C@]23C)CC1 [Example 611] was > 10 µM

Reported EC50 for CCCN(CCC)C(=O)C(=O)O[C@@H](C)[C@H]1CC[C@H]2[C@@H]3CC=C4C[C@@H](O)CC[C@]4(C)[C@H]3CC[C@]12C [Example 196] was 1 to 10 µM

Reported EC50 for C=C[C@](O)(CC[C@@H](C)[C@H]1CC[C@H]2[C@@H]3CC=C4C[C@@H](O)CC[C@]4(C)[C@H]3CC[C@]12C)C(F)(F)F [Example 20] was > 10 µM

Reported EC50 for Cc1cc(N2CCN(C(=O)CC[C@@H](C)[C@H]3CC[C@H]4[C@@H]5CC=C6C[C@@H](O)CC[C@]6(C)[C@H]5CC[C@]34C)CC2)sn1 [Example 497] was > 10 µM

---

- TESTED TARGET: UniProtKB P55055
- METHOD: In vitro assay LXRβ: PathHunter NHR CHO cells, LXRβ / Steroid Receptor Co-activator Peptide enzyme fragment complementation
- Format: cell-based
- SETTINGS: PathHunter NHR CHO cells, full-length human LXRβ and SRCP, chemiluminescent signal; read-out: LXRβ PPI
compounds and their reported EC50

C[C@H](CCC(=O)N1CCNC(=O)C1)[C@H]1CC[C@H]2[C@@H]3CC=C4C[C@@H](O)CC[C@]4(C)[C@H]3CC[C@]12C	> 10 µM

Reported EC50 for C[C@H](CCC(=O)N1CCN(C(=O)N2CCC2)CC1)[C@H]1CC[C@H]2[C@@H]3CC=C4C[C@@H](O)CC[C@]4(C)[C@H]3CC[C@]12C was > 10 µM

Reported EC50 for Cc1ccnc(CC[C@@H](C)[C@H]2CC[C@H]3[C@@H]4CC=C5C[C@@H](O)CC[C@]5(C)[C@H]4CC[C@]23C)n1 was 0.25 to 1 µM

Reported EC50 for Cc1nn(C)cc1N1CCN(C(=O)CC[C@@H](C)[C@H]2CC[C@H]3[C@@H]4CC=C5C[C@@H](O)CC[C@]5(C)[C@H]4CC[C@]23C)CC1 was > 10 µM

Reported EC50 for C[C@H](CCC(=O)N1CCC(C)(CNC(=O)C(C)(C)O)CC1)[C@H]1CC[C@H]2[C@@H]3CC=C4C[C@@H](O)CC[C@]4(C)[C@H]3CC[C@]12C was > 10 µM
